Assay: qHTS assay to identify small molecule antagonists of the estrogen related receptor (ERR) signaling pathway from Tox21 library - cell viability counter screen (AID 1224834); also: nearly all actives have a fitted effect of over 30% in size
Settings: ERR reporter cells viability, CellTiter-Fluor, 17.5 h; series mostly up to 92.4 µM
Inconclusive results are not listed. Calls of active or inactive are those of the source. Calls follow the shape of the dose curve; as a rule, active = well fitted cell-killing curve with a large enough effect in the repeat runs; inconclusive = weak or mixed curves; inactive = flat fitted curve, though single readings scatter.
Result category, one only: y for active, n for inactive

Solved entries:
For CCCCCCCCCCO[C@@H]1O[C@H](CO)[C@@H](O)[C@H](O)[C@H]1O , what call appears in the results of this test?
n

What did the test return for CO[C@@H]1[C@H](OC(=O)/C=C/C=C/C=C/C=C/C(=O)O)CC[C@]2(CO2)[C@H]1[C@@]1(C)O[C@@H]1CC=C(C)C ?
n

Given Cc1oc(-c2ccccc2)nc1CCOc1cccc2c1ccn2CCC(=O)O , state the outcome it received in this test.
y

For this compound, state the assay outcome: CCCCCC[C@@H](O)C/C=C\CCCCCCCC(=O)OC
n

GET /call?item= Nc1ccc(N)c2c1C(=O)c1ccccc1C2=O returns the recorded outcome of this test.
y

Fill in: this test's call for O=C(O)c1ccco1 is ___
n

Test call, this compound: NCc1ccccc1Sc1ccccc1CO
n

# outcome recorded in this test, key = O=C1[C@H]2CCCC[C@H]2C(=O)N1CCCCN1CCN(c2nsc3ccccc23)CC1
y

For this compound, state the assay outcome: O=C(O)c1ccc(-n2nc(-c3ccccc3O)nc2-c2ccccc2O)cc1
y

Tell me the recorded outcome of this test for O=C(Nc1ccc(S(=O)(=O)N2CCOCC2)cc1)c1cc(Cl)ccc1NS(=O)(=O)c1ccc(Cl)s1 .
n

Kindly review the next compound as well.
Each compound tested received a call. Report the one for CC(=O)[O][Al][O]C(C)=O .
n

====

Test: qHTS assay to identify aromatase inhibitors - cell viability counter screen (AID 743084);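 also: cells stimulated with testosterone during compound exposure; nearly all actives have a fitted effect of over 55% in size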
Conditions: MCF-7 aro ERE viability, CellTiter-Fluor, 24 h; series mostly up to 70.3 µM
Results filed as inconclusive are left out. Activity calls are given as the source filed them. The call rests on the fitted dose curve; in most records, active means well fitted cell-killing curve with a large enough effect in the repeat runs; inconclusive means weak or mixed curves, or effect the other way; inactive means no such curve, though single readings can be large or run the other way.
Hello, when you answer, please use one of the following outcomes: active, inactive

Example cases with answers are listed next.
Just curious, what result did CCCCCCCCCCCCN1CCCCCC1=O get here?
inactive

Lab log entry: Nc1c(CC(=O)O)cccc1C(=O)c1ccc(Br)cc1 — outcome as called in the assay?
inactive

What did this assay record as the result for CCCCC(CC)COC(=O)COc1ccc(Cl)cc1Cl (configuration not stated) ?
inactive

What classification did O=C(CS)Nc1ccccc1 end up with in this test?
inactive

---
I'd appreciate the recorded outcome for CC(C)(COC(=O)c1ccccc1)COC(=O)c1ccccc1 from this test.
inactive

Fill in: this test's call for CN1CCN(C(c2ccccc2)c2ccccc2)CC1 is ___
inactive

What did this assay record as the result for COc1ccc(C)cc1[N+](=O)[O-] ?
inactive

Hi team, can someone confirm the assay call for Cc1ccc(N=Nc2c(O)c(C(=O)O)cc3ccccc23)c(S(=O)(=O)O)c1 ?
active

====

Assay: qHTS assay to test for compound auto fluorescence at 590 nm (red) in HEK293 cells (AID 720679); also: % is scaled to controls: 0 for no effect and ±100 for the full control effect
Settings: red autofluorescence 540/590 nm; series mostly up to 91.3 µM
The source made the active and inactive calls. Calls come from the whole dose curve; as a rule, active = well fitted curve in the direction sought with a large enough effect in the repeat runs; inconclusive = weak or mixed curves; inactive = flat fitted curve, though single readings scatter.
Endpoint label: fluorescence, % of fluorescent control

Take a look at these entries with their results.
What value of fluorescence, % of fluorescent control has been reported for the following compound? CC[N+]1(CC)CCC(=C(c2ccccc2)c2ccccc2)C1C (stereo not given)
inactive

Any idea what fluorescence, % of fluorescent control was measured for CC(=O)OC[C@H]1O[C@@H](n2ncc(=O)[nH]c2=O)[C@H](OC(C)=O)[C@@H]1OC(C)=O ?
inactive

If you can, please state the reported fluorescence, % of fluorescent control value of CCOC(=O)C(F)(F)F .
inactive

Would you kindly share the measured fluorescence, % of fluorescent control for Cc1cc(N)c2cc(NC(=O)Nc3ccc4nc(C)cc(N)c4c3)ccc2n1 ?
inactive

Need fluorescence, % of fluorescent control of ClCCOCCOCCCl , thanks.
inactive

New cases:
Which value of fluorescence, % of fluorescent control has been reported for C[C@@H]1C[C@H]2O[C@@]3(O[C@@H]2C(C)(C)O)[C@H](O)[C@@]2(C)[C@@H]4CC[C@H]5C(C)(C)[C@@H](O[C@@H]6OC[C@@H](O)[C@H](O)[C@H]6O)CC[C@@]56C[C@@]46CC[C@]2(C)[C@@H]13 in the records?
inactive

Name the recorded fluorescence, % of fluorescent control for Clc1ccc(Cn2c(CN3CCCC3)nc3ccccc32)cc1 .
0.574% [at 18.6 µM] (inactive)

Entry CN(C)CCN(Cc1ccc(Cl)cc1)c1ccccn1 : reported fluorescence, % of fluorescent control = ?
-0.0077% [at 18.6 µM] (inactive)

// lookup fluorescence, % of fluorescent control for CN1CCC(N(Cc2cccs2)c2ccccc2)CC1
inactive

Requested field: fluorescence, % of fluorescent control. Item: CN(Cc1ccc(C(C)(C)C)cc1)Cc1cccc2ccccc12
inactive

====

Experiment: qHTS assay to identify small molecule agonists of the sonic hedgehog signaling (Shh) pathway - cell viability counter screen (AID 1259366); also: nearly all actives have a fitted effect of over 50% in size
Details: NIH/3T3 Gli1-Luc viability, CellTiter-Fluor, 24 h; series mostly up to 92.4 µM
Inconclusive results are not listed. Active and inactive are the calls of the source. The call rests on the fitted dose curve; in most records, active means well fitted cell-killing curve with a large enough effect in the repeat runs; inconclusive means weak or mixed curves, or effect the other way; inactive means flat fitted curve, though single readings scatter.
Bench note: report the call from active, inactive

Hi team, can someone confirm the assay call for COc1ccc2cccc(CCNC(C)=O)c2c1 ?
inactive

Dear colleague, could you share the recorded outcome for CCN(CC)c1ccc2c(-c3ccccc3C(=O)O)c3ccc(=[N+](CC)CC)cc-3oc2c1 when you have a moment?
active

Dear colleague, could you share the recorded outcome for Nc1c(CC(=O)O)cccc1C(=O)c1ccc(Br)cc1 when you have a moment?
inactive

For this molecule, state the assay outcome: CCn1cc(C(=O)O)c(=O)c2cnc(N3CCNCC3)nc21
inactive

Assay result, entry CCCC(=O)Nc1ccc(O)c(C(C)=O)c1 — outcome?
inactive

// param item: CN1CCC(N(Cc2cccs2)c2ccccc2)CC1 ; yields the recorded call
inactive

Further cases:
# fetch the recorded call for CCCCOC(=O)CCCCCCCC(=O)OCCCC here
inactive

Short answer needed: outcome of this test for Cc1cccc(C)c1NC(=O)CN(CC(=O)O)CC(=O)O ?
inactive

Record lookup: outcome of this test for Nc1cccc([N+](=O)[O-])c1 ?
inactive

Answer briefly: the call reported for CCOc1ccc(O)cc1 in this assay.
inactive

What did this assay record as the result for C[C@@H](c1ncncc1F)C(O)(Cn1cncn1)c1ccc(F)cc1F (some centres undefined) ?
inactive

Would you mind telling me which call this test gave CCCOC(C(=O)OC1CCN(C)CC1)(c1ccccc1)c1ccccc1 ?
active

Dear all, I need the recorded test outcome for C[N+]1(CC2COC(c3ccccc3)(C3CCCCC3)O2)CCCCC1 (centres undefined) , thank you.
inactive

====

Assay: qHTS assay to identify small molecule antagonists of the sonic hedgehog signaling (Shh) pathway (AID 1259369); also: nearly all actives have a fitted effect of over 45% in size
Conditions: NIH/3T3 Gli1-Luc reporter, Shh antagonist, luminescence 24 h; series mostly up to 92.4 µM
Results filed as inconclusive are left out. The source made the active and inactive calls. Calls follow the shape of the full dose curve.
Your answer must be one of the following: active, inactive

// below: answered compounds
Returns: the outcome recorded for CC[N+](C)(CC)CCOC(=O)C(O)(c1ccccc1)C1CCCCC1 (stereo not drawn) in this assay.
inactive

Test call, this compound: CC/C=C\CCOC(=O)CC
inactive

Returns: the outcome recorded for O=[N+]([O-])c1ccc2[nH]ncc2c1 in this assay.
inactive

How was C=CCOc1ccccc1OCC(O)CNC(C)C (stereo not drawn) classified in this test?
inactive

# outcome recorded in this test, key = O=C(Nc1ccccc1)c1ccccc1O
active

More entries:
Write down the call the test reported for this compound. Item: CC(=O)c1cccc([N+](=O)[O-])c1
inactive

Just curious, what result did C=CCOC(=O)CCC1CCCCC1 get here?
inactive

Name the outcome recorded for O=C1OC(=O)C2C3C=CC(C3)C12 (stereo not drawn) in the assay.
inactive

====

Target: Peroxisome proliferator-activated receptor gamma (Homo sapiens) (UniProt P37231)
Sequence (P37231 whole entry, looked up): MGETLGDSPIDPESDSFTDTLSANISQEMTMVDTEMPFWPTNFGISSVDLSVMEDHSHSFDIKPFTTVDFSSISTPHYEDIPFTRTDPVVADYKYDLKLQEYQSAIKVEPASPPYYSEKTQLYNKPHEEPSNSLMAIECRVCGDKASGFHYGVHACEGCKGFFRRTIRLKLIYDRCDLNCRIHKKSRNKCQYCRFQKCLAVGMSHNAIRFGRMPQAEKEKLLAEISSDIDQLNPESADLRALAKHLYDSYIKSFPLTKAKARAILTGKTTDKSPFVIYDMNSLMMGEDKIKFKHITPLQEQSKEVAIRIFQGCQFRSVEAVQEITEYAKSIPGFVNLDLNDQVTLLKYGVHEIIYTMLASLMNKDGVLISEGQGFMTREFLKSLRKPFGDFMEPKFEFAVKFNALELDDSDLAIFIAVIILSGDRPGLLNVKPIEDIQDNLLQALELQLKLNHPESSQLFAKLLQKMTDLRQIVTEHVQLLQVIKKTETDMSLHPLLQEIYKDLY
Test: qHTS assay to identify small molecule agonists of the peroxisome proliferator-activated receptor gamma (PPARg) signaling pathway (AID 743094); also: % is scaled to controls: 0 for no effect and ±100 for the full control effect
Settings: HEK293H PPARg-UAS-bla, beta-lactamase FRET ratio, 17 h; series mostly up to 57 µM
Inconclusive results are not listed. Activity calls are given as the source filed them. The call rests on the fitted dose curve; in most records, active means well fitted activation curve with a large enough effect in the signal ratio in the repeat runs (not every such curve was filed as active); inconclusive means weak or mixed curves, or effect the other way; inactive means no such curve, though single readings can be large or run the other way; the % refers to the signal ratio.
Endpoint label: outcome

Find the recorded outcome belonging to OC(CN1CCC(Cc2ccc(F)cc2)CC1)c1ccc(Cl)cc1 (stereo not given) and report it.
inactive

Which outcome is reported for this compound? CCCCCCCCCCO[C@@H]1O[C@H](CO)[C@@H](O)[C@H](O)[C@H]1O
inactive

Any idea what outcome was measured for O=C(Cl)c1cc(C(=O)Cl)cc(C(=O)Cl)c1 ?
inactive

outcome lookup needed for C=CCOc1ccccc1OCC(O)CNC(C)C (stereo not given) , thanks.
inactive

Return reported outcome; argument: CCC(=O)O[C@]1(C(=O)CCl)[C@@H](C)C[C@H]2[C@@H]3CCC4=CC(=O)C=C[C@]4(C)[C@@]3(F)[C@@H](O)C[C@@]21C
inactive

Next:
Need outcome of CC[N+]1(CC)CCC(=C(c2ccccc2)c2ccccc2)C1C (stereo not given) , thanks.
inactive

Field request: outcome | item: C[N+]1(CC2COC(c3ccccc3)(C3CCCCC3)O2)CCCCC1 (stereo not given)
inactive

Which outcome reading was recorded for the compound CCCn1cnc2c1c(=O)n(CCCCC(C)=O)c(=O)n2C ?
inactive

Sample O=C(OCCc1ccccc1)c1ccccc1 — what was its outcome?
inactive

outcome for CN1CCC(=C2c3ccccc3Sc3ccccc32)CC1 ?
inactive

Given COc1ccc(C(=O)c2ccc(OC)cc2O)c(O)c1 , state its recorded outcome.
inactive

State the recorded outcome for this entry: OC[C@H]1O[C@@H](OCCc2ccc(O)cc2)[C@H](O)[C@@H](O)[C@@H]1O
inactive

Would you mind telling me what outcome value was observed for Nc1ccc(N)c2c1C(=O)c1ccccc1C2=O ?
inactive

Endpoint output: outcome of CCCCCCCCCc1ccc(OCCOCCO)cc1 . Value?
inactive

Returns the measured outcome for the input compound. Input: CC(C)=CCC/C(C)=C/CC/C(C)=C/CO
inactive
